selectivity CB1 overview
# system_tested: CB1 cannabinoid receptor (Rattus norvegicus)
# Construct: membranes were prepared from rat forebrain membranes; from tissue; host or cells: rat forebrain
# Sequence (P20272 whole entry): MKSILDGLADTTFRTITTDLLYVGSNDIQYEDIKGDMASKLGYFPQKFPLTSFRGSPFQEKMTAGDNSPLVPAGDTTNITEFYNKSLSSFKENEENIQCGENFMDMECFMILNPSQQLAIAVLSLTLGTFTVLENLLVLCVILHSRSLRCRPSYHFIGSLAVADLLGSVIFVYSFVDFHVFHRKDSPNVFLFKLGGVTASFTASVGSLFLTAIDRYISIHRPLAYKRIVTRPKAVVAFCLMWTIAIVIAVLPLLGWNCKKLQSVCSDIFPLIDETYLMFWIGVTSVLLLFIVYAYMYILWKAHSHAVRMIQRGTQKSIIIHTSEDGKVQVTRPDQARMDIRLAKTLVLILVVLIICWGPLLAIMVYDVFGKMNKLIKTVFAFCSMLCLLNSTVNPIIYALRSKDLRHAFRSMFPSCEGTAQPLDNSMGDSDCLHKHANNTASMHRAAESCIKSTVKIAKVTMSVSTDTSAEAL
# experimental_protocol: CB1 receptor binding, rat forebrain membranes, [3H] CP-55,940 displacement
# protocol_conditions: ratio of CB2 Ki to CB1 Ki
Give the figure only, with no unit attached.

# count of solved cases: 4
compound	selectivity CB1
Cc1c(C(=O)NN2CCCCC2)nn(-c2ccc(Cl)cc2Cl)c1-c1ccc(-c2ccccc2Cl)cc1 [Compound 1-3]	16
CCOCc1c(C(=O)NC2CCCCC2)nn(-c2ccc(Cl)cc2Cl)c1-c1ccc(Br)cc1 [Compound 1-10]	16
Cc1c(NC(=O)N2CCCCC2)nn(-c2ccc(Cl)cc2Cl)c1-c1ccc(Br)cc1 [Compound 3-13]	6.0
Cc1c(C(=O)N(C)C2CCCCC2)nn(-c2ccc(Cl)cc2Cl)c1-c1ccc(-c2nnn(C)n2)cc1 [Compound 2-15]	5.2

Request: # query: selectivity CB1 | item O=C(NN1CCCCC1)c1nn(-c2ccc(-c3cccnc3)cc2Cl)c(-c2ccc(-c3cccnc3)cc2)c1CO [Compound 3-19] | system: CB1 cannabinoid receptor (Rattus norvegicus)
Result: 13.2

Request: # query: selectivity CB1 | item CN(C(=O)Nc1nn(-c2ccc(Cl)cc2Cl)c(-c2ccc(Br)cc2)c1CO)C1CCCCC1 [Compound 2-21] | system: CB1 cannabinoid receptor (Rattus norvegicus)
Result: 15.1

Request: # query: selectivity CB1 | item COCc1c(C(=O)NC2CCCCC2)nn(-c2ccc(Cl)cc2Cl)c1-c1ccc(I)cc1 [Compound 1-22] | system: CB1 cannabinoid receptor (Rattus norvegicus)
Result: 45

Reference source: patent US8084467B2
